test system: 3D7-MR4 trophozoite parasite-infected RBCs; test: Metabolomic profiling (hydrophilic metabolite changes, UHPLC-MS); format: cell-based, Plasmodium falciparum; conditions: metabolite N-acetyl-glutamine
Kindly state Log2(fold change) N-acetyl-glutamine for each of the entries shown.
One number for each entry.

These solved cases illustrate the format of a correct answer.
{"molecule": "FC(F)(F)c1ccc(Nc2cc3[nH]c(-c4cccc(C(F)(F)F)c4)nc3cn2)nc1", "Log2(fold change) N-acetyl-glutamine": 0.0192}
{"molecule": "Cc1ccc(Oc2ncccc2C(=O)Nc2cccc3cccnc23)c(C)c1", "Log2(fold change) N-acetyl-glutamine": 0.3326}
{"molecule": "CCCCN(CCCC)CC(O)c1cc(Cl)cc2c1-c1ccc(Cl)cc1/C2=C/c1ccc(Cl)cc1 (stereo not shown) [Lumefantrine, reference compound]", "Log2(fold change) N-acetyl-glutamine": 0.0000}

[in] Tell me the measured Log2(fold change) N-acetyl-glutamine of "CC(C)(C)OC(=O)N1CCN(c2ccccc2NC(=O)c2cccc(C(F)(F)F)c2Oc2ccc(F)cc2)CC1" , please.
[out] -0.0526

###

test system: Plasmodium falciparum 3D7-A10 parasites; test: Stage specificity assay (8-h exposure of synchronized stages, IC50^8h); assay type: cell-based; conditions: Plasmodium falciparum, 3D7, read-out: IC50^8h values, text summary of Table S1
pIC50: −log10 of the molar value.
assay-metric: pIC50

{"molecule": "CCCCN(CCCC)CC(O)c1cc(Cl)cc2c1-c1ccc(Cl)cc1/C2=C/c1ccc(Cl)cc1 (centres unmarked) [Lumefantrine, reference compound]", "pIC50": "> 6.52"}

[in] Look up pIC50 for this molecule: OC(c1cc(C(F)(F)F)nc2c(C(F)(F)F)cccc12)C1CCCCN1 (centres unmarked) [Mefloquine, reference compound]
[out] > 6.52

###

test system: 3D7-MR4 trophozoite parasite-infected RBCs; assay: Metabolomic profiling (hydrophilic metabolite changes, UHPLC-MS); type: cell-based, Plasmodium falciparum; details: metabolite NAD+
assay-metric: Log2(fold change) NAD+
One number for each entry.

Answered cases to consult:
{"compound": "CNc1nc(NCCCN(C)C)c2sc(-c3cccc(C(F)(F)F)c3)cc2n1 [MMV668311]", "measured-value": 0.0000}
{"compound": "Clc1ccc2c(N3CCN(CCCN4CCN(c5ccnc6cc(Cl)ccc56)CC4)CC3)ccnc2c1 [Piperaquine, reference compound]", "measured-value": -0.0736}
{"compound": "CC(C)C[C@@H](/C=C/S(C)(=O)=O)NC(=O)[C@H](CC(C)C)NC(=O)[C@H](Cc1c[nH]c2ccccc12)NC(=O)CN1CCOCC1 [WLL-vs, reference compound]", "measured-value": 0.0000}

As a next step, examine the compound that follows.
[in] Give the reported Log2(fold change) NAD+ for CC(C)(C)c1ccc2c(c1)CN(Cc1ccc(Cl)cc1)CO2 [MMV000442] (system: 3D7-MR4 trophozoite parasite-infected RBCs).
[out] -0.0829

###

test system: 3D7-MR4 trophozoite parasite-infected RBCs; experiment: Metabolomic profiling (hydrophilic metabolite changes, UHPLC-MS); type: cell-based, Plasmodium falciparum; conditions: metabolite inosine
Values of Log2(fold change) inosine greater than or equal to -0.4 map to True; values below map to False.

{"molecule": "O=C(Nc1ccsc1C(=O)NC1CCCCC1)c1ccc(F)cc1", "group-label": "False"}
{"molecule": "CN(C)Cc1ccc(-c2cc3c(-c4ccc(CN(C)C)cc4)ccnc3[nH]2)cc1.O=C(O)C(F)(F)F", "group-label": "True"}

[in] Assess whether reported Log2(fold change) inosine for O=C1C(O)=C([C@H]2CC[C@H](c3ccc(Cl)cc3)CC2)C(=O)c2ccccc21 [Atovaquone, reference compound] sits at -0.4 or higher.
[out] True

[in] Does Log2(fold change) inosine meet or surpass -0.4 for OC(c1cc(C(F)(F)F)nc2c(C(F)(F)F)cccc12)C1CCCCN1 (centres unmarked) [Mefloquine, reference compound] ?
[out] False

[in] Please tell me: is the molecule "FC(F)(F)c1ccc(Nc2cc3[nH]c(-c4cccc(C(F)(F)F)c4)nc3cn2)nc1" at or over -0.4 in terms of Log2(fold change) inosine?
[out] True

[in] State whether the measured Log2(fold change) inosine reaches -0.4, counting equality as reaching it, for "Cl.c1ccc2c(NCCCCCCNc3c4c(nc5ccccc35)CCCC4)c3c(nc2c1)CCCC3"
[out] False

[in] Check the entry CN(C(=O)c1cn2c(-c3ccc(C(F)(F)F)cc3)cnc2cn1)c1ccc(C#N)cc1 [KAI407, reference compound] : does Log2(fold change) inosine equal or exceed -0.4?
[out] True

###

tested on: 3D7-MR4 trophozoite parasite-infected RBCs; experiment: Metabolomic profiling (hydrophilic metabolite changes, UHPLC-MS); type: cell-based, Plasmodium falciparum; conditions: metabolite UDP-D-glucuronate; log2 fold change
assay-metric: Log2(fold changes) UDP-D-glucuronate
Give bare numbers.

Past entries and their recorded results:
{"compound": "C[C@H]1Cc2c([nH]c3cc(Cl)c(F)cc23)[C@@]2(N1)C(=O)Nc1ccc(Cl)cc12 [KAE609, reference compound]", "Log2(fold changes) UDP-D-glucuronate": -0.3600}
{"compound": "CC(C)C[C@@H](/C=C/S(C)(=O)=O)NC(=O)[C@H](CC(C)C)NC(=O)[C@H](Cc1c[nH]c2ccccc12)NC(=O)CN1CCOCC1 [WLL-vs, reference compound]", "Log2(fold changes) UDP-D-glucuronate": -0.1270}

Now examine the next entry.
[in] // lookup Log2(fold changes) UDP-D-glucuronate for COc1ccc(C2c3ccc4ccccc4c3Oc3ncn(CCCN(C)C)c(=N)c32)cc1 (stereo not drawn)
[out] 0.0929

###

test system: 3D7-MR4 trophozoite parasite-infected RBCs; experiment: Metabolomic profiling (hydrophilic metabolite changes, UHPLC-MS); format: cell-based, Plasmodium falciparum; conditions: metabolite 6-phospho-D-gluconate, log2 fold change
Log2(fold changes) 6-phospho-D-gluconate of -0.06 or higher: yes. Under -0.06: no.

{"compound": "COc1cncc(-c2cncc(N3CCN(c4ccncc4)CC3)n2)c1", "target": "3D7-MR4 trophozoite parasite-infected RBCs", "group-label": "no"}
{"compound": "CNc1nc(NCCCN(C)C)c2sc(-c3cccc(C(F)(F)F)c3)cc2n1", "target": "3D7-MR4 trophozoite parasite-infected RBCs", "group-label": "yes"}

[in] Can O=C1C(O)=C([C@H]2CC[C@H](c3ccc(Cl)cc3)CC2)C(=O)c2ccccc21 [Atovaquone, reference compound] be said to have Log2(fold changes) 6-phospho-D-gluconate at or above -0.06?
[out] yes

[in] Could you tell me if the measured Log2(fold changes) 6-phospho-D-gluconate of CC(C)C[C@@H](/C=C/S(C)(=O)=O)NC(=O)[C@H](CC(C)C)NC(=O)[C@H](Cc1c[nH]c2ccccc12)NC(=O)CN1CCOCC1 [WLL-vs, reference compound] reaches -0.06 or more?
[out] yes

[in] Exam item: decide whether the reported Log2(fold changes) 6-phospho-D-gluconate for OC(c1cc(C(F)(F)F)nc2c(C(F)(F)F)cccc12)C1CCCCN1 (stereo not shown) [Mefloquine, reference compound] is at least -0.06.
[out] yes

[in] Form field: Log2(fold changes) 6-phospho-D-gluconate at least -0.06? Entry: CCN(CC)CCn1c(=N)n(CC(O)c2ccc(Cl)c(Cl)c2)c2ccccc21.Cl (stereo not shown)
[out] no

###

tested on: Plasmodium falciparum 3D7-A10 parasites; assay: Stage specificity assay (8-h exposure of synchronized stages, IC50^8h); type: cell-based; conditions: read-out: Early trophozoites Mean IC50 (IC50^8h); 8-h exposure 16–24 hr, 3D7-A10, survival at 60 h
So I've got a bunch of compounds here, and I need their pIC50 values.
One number for each entry, as −log10 of the molar value.

Here is how some compounds turned out for pIC50.
{"compound": "CC(C)(C)c1ccc2c(c1)CN(Cc1ccc(Cl)cc1)CO2", "pIC50": 6.75}
{"compound": "CC(C)(C)NCc1cc(Nc2ccnc3cc(Cl)ccc23)c2c(c1O)CCCC2 [Naphtoquine, Naphthoquine, reference compound]", "pIC50": 7.71}

Now take the following compound into account.
[in] Which pIC50 is listed for "CN(C)Cc1ccc(-c2cc3c(-c4ccc(CN(C)C)cc4)ccnc3[nH]2)cc1.O=C(O)C(F)(F)F" ?
[out] 6.27

###

Would you kindly list Log2(fold change) SID for each of these compounds?
system: 3D7-MR4 trophozoite parasite-infected RBCs; test: Metabolomic profiling (hydrophilic metabolite changes, UHPLC-MS); format: cell-based, Plasmodium falciparum; conditions: metabolite SID

Sample records with Log2(fold change) SID:
{"compound": "COc1cncc(-c2cncc(N3CCN(c4ccncc4)CC3)n2)c1 [MMV085071]", "measured-value": -0.3348}
{"compound": "CC(C)C[C@@H](/C=C/S(C)(=O)=O)NC(=O)[C@H](CC(C)C)NC(=O)[C@H](Cc1c[nH]c2ccccc12)NC(=O)CN1CCOCC1 [WLL-vs, reference compound]", "measured-value": -0.3691}
{"compound": "CC(C)(C)c1ccc2c(c1)CN(Cc1ccc(Cl)cc1)CO2 [MMV000442]", "measured-value": 0.0000}

Record Log2(fold change) SID per entry; entries follow.
1. CCN(CC)CCn1c(=N)n(CC(O)c2ccc(Cl)c(Cl)c2)c2ccccc21.Cl (centres unmarked) [MMV000248]
2. CC(C)(C)NCc1cc(Nc2ccnc3cc(Cl)ccc23)c2c(c1O)CCCC2 [Naphtoquine, Naphthoquine, reference compound]
3. O=C(Nc1ccsc1C(=O)NC1CCCCC1)c1ccc(F)cc1 [MMV665939]
4. OC(c1cc(C(F)(F)F)nc2c(C(F)(F)F)cccc12)C1CCCCN1 (centres unmarked) [Mefloquine, reference compound]
5. CC(C)(C)OC(=O)N1CCN(c2ccccc2NC(=O)c2cccc(C(F)(F)F)c2Oc2ccc(F)cc2)CC1 [MMV030666]
6. Clc1ccc2c(N3CCN(CCCN4CCN(c5ccnc6cc(Cl)ccc56)CC4)CC3)ccnc2c1 [Piperaquine, reference compound]
7. CN(C)c1ccc2nc3ccc(=[N+](C)C)cc-3sc2c1 [Methylene blue, reference compound]

[out]
1: 0.0000; 2: 0.2783; 3: -0.5481; 4: 0.0863; 5: 0.0000; 6: 0.0000; 7: 0.0000

Each compound below has a recorded value; state its Log2(fold change) SID.
1. COc1cc(-c2nc(-c3ccccc3)c(-c3ccccc3)[nH]2)ccc1OCCN(C)C [MMV027496]
2. O=C(Nc1ccc(N2CCNCC2)cc1)c1ccn2ncc(-c3cccc(Cl)c3)c2n1.O=C(O)C(F)(F)F [MMV022478]
3. Cc1ccc(Oc2ncccc2C(=O)Nc2cccc3cccnc23)c(C)c1 [MMV020746]

[out]
1: 0.0000; 2: -5.7557; 3: -1.9821

For each entry beneath this line, provide reported Log2(fold change) SID.
1. COc1ccc(C2c3ccc4ccccc4c3Oc3ncn(CCCN(C)C)c(=N)c32)cc1 (centres unmarked) [MMV667491]
2. CNc1nc(NCCCN(C)C)c2sc(-c3cccc(C(F)(F)F)c3)cc2n1 [MMV668311]
3. CCOC(=O)C1=C(C)NC2=C(C(=O)CC(c3ccc(OC)c(OC)c3)C2)C1c1ccccc1Cl (centres unmarked) [GNF-Pf-5660, reference compound]
4. Cc1cc(Nc2ccc(S(F)(F)(F)(F)F)cc2)n2nc(C(C)(F)F)nc2n1 [DSM265, reference compound]
5. CN(C)Cc1ccc(-c2cc3c(-c4ccc(CN(C)C)cc4)ccnc3[nH]2)cc1.O=C(O)C(F)(F)F [MMV022224]
6. COCCNCC(O)Cn1c2ccc(Cl)cc2c2cc(Cl)ccc21 (centres unmarked) [MMV019017]
7. CCCN(CCC)CC(O)COc1ccccc1C(=O)Nc1ccccc1 (centres unmarked) [MMV006455]

[out]
1. -0.4398
2. 0.1033
3. 0.0000
4. 0.0000
5. 0.0000
6. 0.0000
7. 0.0000
